Source: patent US11453632B2

# Target or system: ERβ LBD (Homo sapiens)
# Construct: host or cells: HEK293
# Sequence (Q92731 264-498 limits assumed): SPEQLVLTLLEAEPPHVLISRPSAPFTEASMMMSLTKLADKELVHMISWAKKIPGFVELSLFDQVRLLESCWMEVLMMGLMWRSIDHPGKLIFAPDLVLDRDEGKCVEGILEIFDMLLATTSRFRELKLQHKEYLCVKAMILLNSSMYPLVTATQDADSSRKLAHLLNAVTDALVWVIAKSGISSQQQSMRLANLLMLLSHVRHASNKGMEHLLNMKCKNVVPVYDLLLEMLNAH
# Test summary: Ability to bind to ERβ: pBIND-ERβ LBD / GAL4 luciferase reporter in HEK293 cells
# Format: cell-based
# Design: key: RLU = firefly luminescence / Renilla luminescence
# Applied conditions: 100 nM; negative control 0.0118997
Readout label: relative light unit (RLU), ligand binding activity ERβ

Compound	Measurement
Oc1ccc(CC(c2ccc(O)cc2)c2ccn[nH]2)cc1 (centres unmarked)	0.026
CCC(C)C(Cc1ccc(O)cc1)c1ccc(O)cc1 (centres unmarked)	0.2041
Oc1ccc(CC(c2ccc(O)cc2)c2cnco2)cc1 (centres unmarked)	0.8322
Oc1ccc(CC(c2ccc(O)cc2)C2CC2)cc1 (centres unmarked)	0.674
Oc1ccc(CC(C=C(Cl)Cl)c2ccc(O)cc2F)c(F)c1 (centres unmarked)	2.029

* * *

# Target or system: ERβ LBD (Homo sapiens)
# Construct: host or cells: HEK293
# Test summary: Ability to bind to ERβ: pBIND-ERβ LBD / GAL4 luciferase reporter in HEK293 cells
# Type: cell-based
# Design: key: RLU = firefly luminescence / Renilla luminescence
# Applied conditions: 10 nM; negative control 0.0118997
Readout label: relative light unit (RLU), ligand binding activity ERβ

Compound	Target or system	Measurement
Oc1ccc(CC(c2ccc(O)cc2)c2ncon2)cc1 (stereo not shown)	ERβ LBD (Homo sapiens)	0.08851
CCC(C)C(Cc1ccc(O)cc1)c1ccc(O)cc1 (stereo not shown)	ERβ LBD (Homo sapiens)	0.02031
Oc1ccc(C(C=C(Cl)Cl)Cc2c(F)cc(O)cc2F)cc1 (stereo not shown)	ERβ LBD (Homo sapiens)	1.997
Oc1ccc(CC(c2ccc(O)cc2)C2CC2)cc1 (stereo not shown)	ERβ LBD (Homo sapiens)	0.7801
Oc1ccc(CC(c2ccc(O)cc2)c2cnco2)cc1 (stereo not shown)	ERβ LBD (Homo sapiens)	0.04313
Oc1ccc(CC(c2ccc(O)cc2)c2ccn[nH]2)cc1 (stereo not shown)	ERβ LBD (Homo sapiens)	0.02066
Oc1ccc(CC(C=CF)c2ccc(O)cc2)cc1 (stereo not shown)	ERβ LBD (Homo sapiens)	1.068
Oc1ccc(CC(c2ccc(O)cc2)c2cocn2)cc1 (stereo not shown)	ERβ LBD (Homo sapiens)	0.06729
O=C(NC(Cc1ccc(O)cc1)c1ccc(O)cc1)C(F)(F)F (stereo not shown)	ERβ LBD (Homo sapiens)	0.0134
Oc1ccc(CC(C=C(F)F)c2ccc(O)cc2)cc1 (stereo not shown)	ERβ LBD (Homo sapiens)	2.074
CC=CC(Cc1ccc(O)cc1)c1ccc(O)cc1 (stereo not shown)	ERβ LBD (Homo sapiens)	1.153
Oc1ccc(CC(C=C(F)F)c2ccc(O)cc2F)c(F)c1 (stereo not shown)	ERβ LBD (Homo sapiens)	2.367
Oc1ccc(CC(C=C(Cl)Cl)c2ccc(O)cc2F)c(F)c1 (stereo not shown)	ERβ LBD (Homo sapiens)	1.682

* * *

# Target or system: ERβ LBD (Homo sapiens)
# Construct: host or cells: HEK293
# Test summary: Ability to bind to ERβ: pBIND-ERβ LBD / GAL4 luciferase reporter in HEK293 cells
# Format: cell-based
# Set-up: key: RLU = firefly luminescence / Renilla luminescence
# Applied conditions: 0.01 nM; negative control 0.0118997
# Text: This evaluation system is a system exploiting difference in the sequence of the ligand binding domain (LBD) between ERα and ERβ (J Endocrinol 163: 379-383 (1999)), and enables selective activation of ERβ to be evaluated by determining the binding of a ligand to LBD and the activation of ER. […]
Param label: returns t when relative light unit (RLU), ligand binding activity ERβ < 0.03, returns f otherwise, including exact equality.

Compound	Group
CC=CC(Cc1ccc(O)cc1)c1ccc(O)cc1 (stereo not shown)	t
Oc1ccc(C(C=C(Cl)Cl)Cc2c(F)cc(O)cc2F)cc1 (stereo not shown)	f
Oc1ccc(CC(C=C(F)F)c2ccc(O)cc2F)c(F)c1 (stereo not shown)	f
Oc1ccc(CC(C=C(Cl)Cl)c2ccc(O)cc2F)c(F)c1 (stereo not shown)	f
Oc1ccc(CC(c2ccc(O)cc2)c2cnco2)cc1 (stereo not shown)	t
Oc1ccc(CC(C=CF)c2ccc(O)cc2)cc1 (stereo not shown)	t
Oc1ccc(CC(c2ccc(O)cc2)c2ncon2)cc1 (stereo not shown)	t
Oc1ccc(CC(c2ccc(O)cc2)c2cocn2)cc1 (stereo not shown)	t
Oc1ccc(CC(c2ccc(O)cc2)c2ccn[nH]2)cc1 (stereo not shown)	t
Oc1ccc(CC(C=C(F)F)c2ccc(O)cc2)cc1 (stereo not shown)	f

* * *

# Target or system: ERβ LBD (Homo sapiens)
# Construct: host or cells: HEK293
# Test summary: Ability to bind to ERβ: pBIND-ERβ LBD / GAL4 luciferase reporter in HEK293 cells
# Format: cell-based
# Parameters: key: RLU = firefly luminescence / Renilla luminescence
# Applied conditions: 0.1 nM; negative control 0.0118997
The following ranges of relative light unit (RLU), ligand binding activity ERβ define the classes used here: lower segment = under 0.02, middle segment = from 0.02 up to 0.4, upper segment = 0.4 and over

Compound	Group
Oc1ccc(CC(C=C(Cl)Cl)c2ccc(O)cc2F)c(F)c1 (stereo not shown)	middle segment
Oc1ccc(CC(c2ccc(O)cc2)c2ncon2)cc1 (stereo not shown)	middle segment
CC=CC(Cc1ccc(O)cc1)c1ccc(O)cc1 (stereo not shown)	middle segment
Oc1ccc(CC(C=C(F)F)c2ccc(O)cc2F)c(F)c1 (stereo not shown)	upper segment
Oc1ccc(CC(c2ccc(O)cc2)c2ccn[nH]2)cc1 (stereo not shown)	lower segment
Oc1ccc(CC(C=C(F)F)c2ccc(O)cc2)cc1 (stereo not shown)	upper segment
Oc1ccc(CC(c2ccc(O)cc2)c2cocn2)cc1 (stereo not shown)	middle segment
Oc1ccc(C(C=C(Cl)Cl)Cc2c(F)cc(O)cc2F)cc1 (stereo not shown)	upper segment
Oc1ccc(CC(C=CF)c2ccc(O)cc2)cc1 (stereo not shown)	upper segment
Oc1ccc(CC(c2ccc(O)cc2)c2cnco2)cc1 (stereo not shown)	lower segment

* * *

# Target or system: ERα LBD (Homo sapiens)
# Construct: host or cells: HEK293
# Sequence (P03372 311-547 limits assumed): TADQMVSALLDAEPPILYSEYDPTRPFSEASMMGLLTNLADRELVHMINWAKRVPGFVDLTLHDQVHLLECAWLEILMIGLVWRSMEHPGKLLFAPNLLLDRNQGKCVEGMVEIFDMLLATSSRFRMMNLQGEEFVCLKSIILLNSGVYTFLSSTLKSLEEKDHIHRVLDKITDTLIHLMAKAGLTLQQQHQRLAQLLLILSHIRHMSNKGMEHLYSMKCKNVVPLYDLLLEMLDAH
# Test summary: Ability to bind to ERα: pBIND-ERα LBD / GAL4 luciferase reporter in HEK293 cells
# Assay type: cell-based
# Design: key: firefly luciferase / Renilla luciferase luminescence ratio
# Applied conditions: 0.01 nM; negative control 0.00847035
We begin with a simple list: items and their reported relative light unit (RLU), ligand binding activity ERα.
Readout label: relative light unit (RLU), ligand binding activity ERα

Molecule	Measurement
Oc1ccc(C(C=C(Cl)Cl)Cc2c(F)cc(O)cc2F)cc1 (stereo not drawn)	0.0398
Oc1ccc(CC(c2ccc(O)cc2)c2cnco2)cc1 (stereo not drawn)	0.01362
Oc1ccc(CC(c2ccc(O)cc2)c2cocn2)cc1 (stereo not drawn)	0.01424
Oc1ccc(CC(c2ccc(O)cc2)c2ccn[nH]2)cc1 (stereo not drawn)	0.006803
Oc1ccc(CC(C=C(F)F)c2ccc(O)cc2)cc1 (stereo not drawn)	0.02799
Oc1ccc(CC(C=C(Cl)Cl)c2ccc(O)cc2F)c(F)c1 (stereo not drawn)	0.03467
Oc1ccc(CC(C=CF)c2ccc(O)cc2)cc1 (stereo not drawn)	0.005812
Oc1ccc(CC(C=C(F)F)c2ccc(O)cc2F)c(F)c1 (stereo not drawn)	0.02573
Oc1ccc(CC(c2ccc(O)cc2)c2ncon2)cc1 (stereo not drawn)	0.01031

* * *

# Target or system: ERα LBD (Homo sapiens)
# Construct: host or cells: HEK293
# Test summary: Ability to bind to ERα: pBIND-ERα LBD / GAL4 luciferase reporter in HEK293 cells
# Format: cell-based
# Set-up: key: firefly luciferase / Renilla luciferase luminescence ratio
# Applied conditions: 10 nM; negative control 0.00847035
In this section we review reported relative light unit (RLU), ligand binding activity ERα values for a set of molecules.
Readout label: relative light unit (RLU), ligand binding activity ERα

Molecule	Measurement
Oc1ccc(CC(C=C(F)F)c2ccc(O)cc2F)c(F)c1 (stereo not shown)	1.873
O=C(NC(Cc1ccc(O)cc1)c1ccc(O)cc1)C(F)(F)F (stereo not shown)	0.0163
Oc1ccc(CC(c2ccc(O)cc2)c2cnco2)cc1 (stereo not shown)	0.01611
Oc1ccc(CC(C=C(Cl)Cl)c2ccc(O)cc2F)c(F)c1 (stereo not shown)	0.92
CCC(C)C(Cc1ccc(O)cc1)c1ccc(O)cc1 (stereo not shown)	0.01098
Oc1ccc(CC(c2ccc(O)cc2)c2cocn2)cc1 (stereo not shown)	0.0182
Oc1ccc(CC(C=CF)c2ccc(O)cc2)cc1 (stereo not shown)	0.1184
Oc1ccc(CC(c2ccc(O)cc2)c2ccn[nH]2)cc1 (stereo not shown)	0.01191
CC=CC(Cc1ccc(O)cc1)c1ccc(O)cc1 (stereo not shown)	0.008307
Oc1ccc(CC(c2ccc(O)cc2)c2ncon2)cc1 (stereo not shown)	0.01493
Oc1ccc(CC(c2ccc(O)cc2)C2CC2)cc1 (stereo not shown)	0.01001
Oc1ccc(C(C=C(Cl)Cl)Cc2c(F)cc(O)cc2F)cc1 (stereo not shown)	2.2626
Oc1ccc(CC(C=C(F)F)c2ccc(O)cc2)cc1 (stereo not shown)	0.06191
